System: ATP;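 note: ATP exposure 15 min at 22 °C before imaging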
Assay: switch fluorescence ratio, 500 uM ATP over buffer (Cy3 cluster intensity, sum of 5 cycles each) (fold (ratio)); higher = stronger signal-on switching upon ATP binding; sequences stand for … in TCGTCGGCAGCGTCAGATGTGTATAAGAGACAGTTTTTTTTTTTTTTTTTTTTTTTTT…TC
Settings: aptamer strand: ATP DNA aptamer (quencher-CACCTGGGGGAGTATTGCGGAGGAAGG + anchor), 100 nM annealed; ATP concentration: 500 uM
Items are presented alongside their recorded switch fluorescence ratio.
Could you respond with only the numeric value?

Query string: Reported switch fluorescence ratio for TCGGGGTAAG : what is it?
Result string: 1.03

Query string: Reported switch fluorescence ratio for TAGGGTCGGT : what is it?
Result string: 1

----------
Test system: ATP;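 note: ATP exposure 15 min at 22 °C before imaging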
Assay: switch fluorescence ratio, 500 uM ATP over buffer (Cy3 cluster intensity, sum of 5 cycles each) (fold (ratio)); higher = stronger signal-on switching upon ATP binding; sequences stand for … in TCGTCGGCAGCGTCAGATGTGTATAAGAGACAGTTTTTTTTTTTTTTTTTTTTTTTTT…TC
Settings: aptamer strand: ATP DNA aptamer (quencher-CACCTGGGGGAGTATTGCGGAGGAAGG + anchor), 100 nM annealed; ATP concentration: 500 uM
Items are presented alongside their recorded switch fluorescence ratio.
Could you respond with only the numeric value?

Please review the following examples before continuing.
GGTAGTGGCT :: 0.993
GAGAGATGTT :: 0.999
ACACTAGTGT :: 0.985

Query string: Reported switch fluorescence ratio for GCCGTTGGAA : what is it?
Result string: 1.01

----------
Test system: ATP;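 note: ATP exposure 15 min at 22 °C before imaging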
Assay: switch fluorescence ratio, 500 uM ATP over buffer (Cy3 cluster intensity, sum of 5 cycles each) (fold (ratio)); higher = stronger signal-on switching upon ATP binding; sequences stand for … in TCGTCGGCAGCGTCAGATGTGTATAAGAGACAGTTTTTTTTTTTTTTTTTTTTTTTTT…TC
Details: aptamer strand: ATP DNA aptamer (quencher-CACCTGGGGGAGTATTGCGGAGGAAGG + anchor), 100 nM annealed; ATP concentration: 500 uM
READOUT_TYPE: switch fluorescence ratio
Could you respond with only the numeric value?

Please review the following examples before continuing.
CTAGCACGGA :: 0.971
CGTTAAAGAT :: 1.03
TGGTAGGTA :: 0.987
AGATATCAAC :: 1.04
GCCATAGCTG :: 1.01
CGAGGGGTCC :: 0.975
TTTTACGCAG :: 1.03
TATTGATTTA :: 1.02

Query string: Reported switch fluorescence ratio for TTATTATTCA : what is it?
Result string: 1.01

Query string: Reported switch fluorescence ratio for ACACGGGCCT : what is it?
Result string: 1.03

Query string: Reported switch fluorescence ratio for AATCGGGTCT : what is it?
Result string: 0.999

Query string: Reported switch fluorescence ratio for ATGCATGGTT : what is it?
Result string: 1.02

Query string: Reported switch fluorescence ratio for AGGAGGGGT : what is it?
Result string: 1.02

Query string: Reported switch fluorescence ratio for CTTCTATAAC : what is it?
Result string: 1.07

Query string: Reported switch fluorescence ratio for CTTTTAGTGT : what is it?
Result string: 0.963

Query string: Reported switch fluorescence ratio for TTATGCAAAG : what is it?
Result string: 1.1

----------
Items are presented alongside their recorded switch fluorescence ratio.
Test system: ATP;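 note: ATP exposure 15 min at 22 °C before imaging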
Experiment: switch fluorescence ratio, 500 uM ATP over buffer (Cy3 cluster intensity, sum of 5 cycles each) (fold (ratio)); higher = stronger signal-on switching upon ATP binding; sequences stand for … in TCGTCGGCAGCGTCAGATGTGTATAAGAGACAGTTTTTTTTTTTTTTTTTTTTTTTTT…TC
Conditions: aptamer strand: ATP DNA aptamer (quencher-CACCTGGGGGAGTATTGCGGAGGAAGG + anchor), 100 nM annealed; ATP concentration: 500 uM
Could you respond with only the numeric value?

Please review the following examples before continuing.
AATTAACTAT :: 1.02
TGGATTGGGT :: 1
ATTCAGATCG :: 0.999

Query string: Reported switch fluorescence ratio for TTCGAAAGTT : what is it?
Result string: 0.987

Query string: Reported switch fluorescence ratio for GGGGTTTGGA : what is it?
Result string: 0.987

Query string: Reported switch fluorescence ratio for GGGTGTTTCT : what is it?
Result string: 1.01

Query string: Reported switch fluorescence ratio for TACGATAGTC : what is it?
Result string: 1.06

Query string: Reported switch fluorescence ratio for ATCAGTATTA : what is it?
Result string: 1.02

Query string: Reported switch fluorescence ratio for ATCAGAATGA : what is it?
Result string: 1.01

Query string: Reported switch fluorescence ratio for AAATTAGGGA : what is it?
Result string: 0.978

Query string: Reported switch fluorescence ratio for AATGTTATTA : what is it?
Result string: 0.995

Query string: Reported switch fluorescence ratio for ATTGTACGGT : what is it?
Result string: 1.03

Query string: Reported switch fluorescence ratio for TGTTTTGAGT : what is it?
Result string: 1.01

Query string: Reported switch fluorescence ratio for ATAGGGAGGC : what is it?
Result string: 0.967
